Reference source for all entries: ChEMBL document CHEMBL4118239

target: Aminopeptidase N (Homo sapiens); experiment: Inhibition of APN in human PLC/PRF/5 cells using L-Leu-pnitroanilide as substrate pretreated for 5 mins followed by substrate addition measured after 1 hr; format: cell-based
quantity name: IC50 (µM)
Write it as a number; the unit µM goes unstated.

Use the examples below as a reference point.
In [3]: df
Out[3]:
                                   compound  quantity_name  quantity_unit  test_result
0  CC(C)C[C@H](NC(=O)NCc1cn(Cc2cccc(OCc3ccccc3)c2)nn1)C(=O)NO           IC50             µM          4.9
1  CC(C)C[C@H](NC(=O)NCc1cn(Cc2ccccc2OCc2ccccc2)nn1)C(=O)NO           IC50             µM          1.3
2  CCOc1ccccc1Cn1cc(CNC(=O)N[C@@H](CC(C)C)C(=O)NO)nn1           IC50             µM            5
3  COc1ccccc1Cn1cc(CNC(=O)N[C@@H](CC(C)C)C(=O)NO)nn1           IC50             µM         15.3
4  COc1ccccc1C(C)n1cc(CNC(=O)N[C@@H](CC(C)C)C(=O)NO)nn1 (stereo partly specified)           IC50             µM         12.3

Okay, next one:
Sample Cc1ccccc1Cn1cc(CNC(=O)N[C@@H](CC(C)C)C(=O)NO)nn1 ; IC50 observed: 20.6

###

Biological target: Aminopeptidase N (Sus scrofa, UniProt P15145)
Sequence (P15145 whole entry): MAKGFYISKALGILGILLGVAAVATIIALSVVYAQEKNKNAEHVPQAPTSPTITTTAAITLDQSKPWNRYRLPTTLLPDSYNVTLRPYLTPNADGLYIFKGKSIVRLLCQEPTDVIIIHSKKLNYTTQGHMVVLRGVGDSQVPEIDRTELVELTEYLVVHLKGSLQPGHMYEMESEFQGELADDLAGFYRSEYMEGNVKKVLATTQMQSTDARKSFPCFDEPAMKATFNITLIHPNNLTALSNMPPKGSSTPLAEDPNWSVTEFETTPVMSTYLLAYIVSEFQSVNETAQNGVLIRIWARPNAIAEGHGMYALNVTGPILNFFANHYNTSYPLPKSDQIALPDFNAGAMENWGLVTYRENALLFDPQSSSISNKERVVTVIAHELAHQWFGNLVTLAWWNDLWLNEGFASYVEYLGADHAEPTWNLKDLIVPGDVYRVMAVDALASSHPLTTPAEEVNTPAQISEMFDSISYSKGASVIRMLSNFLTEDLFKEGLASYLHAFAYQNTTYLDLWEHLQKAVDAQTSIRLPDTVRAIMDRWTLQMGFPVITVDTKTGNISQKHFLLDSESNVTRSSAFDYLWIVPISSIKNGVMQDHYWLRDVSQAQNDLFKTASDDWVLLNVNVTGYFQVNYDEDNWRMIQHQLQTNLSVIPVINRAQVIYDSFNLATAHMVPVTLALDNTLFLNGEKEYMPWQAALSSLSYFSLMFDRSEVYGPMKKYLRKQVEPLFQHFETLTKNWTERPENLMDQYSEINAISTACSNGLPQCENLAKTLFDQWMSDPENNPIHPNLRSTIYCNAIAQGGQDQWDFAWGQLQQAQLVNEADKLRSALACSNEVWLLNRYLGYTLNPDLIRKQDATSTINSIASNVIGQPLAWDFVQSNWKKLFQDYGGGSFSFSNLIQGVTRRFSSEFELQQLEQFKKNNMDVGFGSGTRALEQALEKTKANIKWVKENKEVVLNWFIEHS
Measured IC50 values are reported for all entries that follow.
Write it as a number; the unit nM goes unstated.

Sample CCOc1ccccc1Cn1cc(CNC(=O)N[C@@H](CC(C)C)C(=O)NO)nn1 ; IC50 observed: 440

Sample O=C(NCc1cn(Cc2ccc(Cl)cc2)nn1)N[C@H](C(=O)NO)c1ccccc1 ; IC50 observed: 11300

Sample CCOc1cccc(Cn2cc(CNC(=O)N[C@@H](CC(C)C)C(=O)NO)nn2)c1 ; IC50 observed: 820

Sample CC(C)C[C@H](NC(=O)NCc1cn(Cc2cccc(Br)c2)nn1)C(=O)NO ; IC50 observed: 3500

Sample COc1ccc(Cn2cc(CNC(=O)N[C@@H](CC(C)C)C(=O)NO)nn2)cc1 ; IC50 observed: 1900

###

Measured IC50 values are reported for all entries that follow.
tested on: K562; test: cells; settings: Homo sapiens, K562, 48 h
Write the figure, then the unit, nothing else.

In [3]: df
Out[3]:
                               smiles_entry  test_result
0  CC(C)C[C@H](NC(=O)NCc1cn(Cc2ccccc2OCc2ccccc2)nn1)C(=O)NO        85 µM

Okay, next one:
Reported IC50 (K562) for entry CC(C)C[C@H](NC(=O)NCc1cn(Cc2cccc(OCc3ccccc3)c2)nn1)C(=O)NO is 99.8 µM

###

Target: Aminopeptidase N (Sus scrofa, UniProt P15145)
Sequence (P15145 whole entry): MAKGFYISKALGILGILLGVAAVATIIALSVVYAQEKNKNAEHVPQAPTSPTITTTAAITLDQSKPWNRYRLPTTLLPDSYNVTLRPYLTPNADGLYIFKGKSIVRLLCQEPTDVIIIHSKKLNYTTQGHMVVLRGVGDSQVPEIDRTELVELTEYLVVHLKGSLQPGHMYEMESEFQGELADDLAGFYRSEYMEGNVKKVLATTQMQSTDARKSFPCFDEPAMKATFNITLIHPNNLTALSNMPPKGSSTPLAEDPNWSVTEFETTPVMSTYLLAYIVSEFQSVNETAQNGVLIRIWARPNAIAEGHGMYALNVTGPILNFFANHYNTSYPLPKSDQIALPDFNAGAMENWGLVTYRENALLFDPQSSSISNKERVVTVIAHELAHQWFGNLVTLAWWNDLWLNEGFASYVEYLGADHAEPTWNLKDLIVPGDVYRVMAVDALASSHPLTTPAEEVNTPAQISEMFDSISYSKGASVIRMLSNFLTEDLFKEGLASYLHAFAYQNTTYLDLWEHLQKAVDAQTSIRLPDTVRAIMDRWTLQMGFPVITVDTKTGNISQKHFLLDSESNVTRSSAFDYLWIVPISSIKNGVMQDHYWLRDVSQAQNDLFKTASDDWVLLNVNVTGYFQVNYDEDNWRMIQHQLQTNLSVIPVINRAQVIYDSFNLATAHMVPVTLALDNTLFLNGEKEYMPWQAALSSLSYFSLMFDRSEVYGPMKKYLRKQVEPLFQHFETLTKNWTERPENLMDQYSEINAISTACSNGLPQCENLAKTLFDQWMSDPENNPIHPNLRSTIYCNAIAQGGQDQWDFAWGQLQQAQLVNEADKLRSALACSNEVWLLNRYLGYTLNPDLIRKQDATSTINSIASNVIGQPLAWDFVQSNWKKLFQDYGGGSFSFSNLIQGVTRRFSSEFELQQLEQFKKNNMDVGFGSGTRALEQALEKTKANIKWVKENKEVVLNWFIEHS
Measured IC50 values are reported for all entries that follow.
Write it as a number; the unit nM goes unstated.

                               smiles_entry  quantity_unit  test_result
0  CCOc1ccc(Cn2cc(CNC(=O)N[C@@H](CC(C)C)C(=O)NO)nn2)cc1             nM         1500

Reported IC50 (Aminopeptidase N (Sus scrofa, UniProt P15145)) for entry COc1ccccc1Cn1cc(CNC(=O)N[C@@H](CC(C)C)C(=O)NO)nn1 is 650

###

target: Aminopeptidase N (Homo sapiens, UniProt P15144); experiment: Inhibition of APN in human ES2 cells using L-Leu-pnitroanilide as substrate pretreated for 5 mins followed by substrate addition measured after 1 hr; type: cell-based
Sequence (P15144 whole entry): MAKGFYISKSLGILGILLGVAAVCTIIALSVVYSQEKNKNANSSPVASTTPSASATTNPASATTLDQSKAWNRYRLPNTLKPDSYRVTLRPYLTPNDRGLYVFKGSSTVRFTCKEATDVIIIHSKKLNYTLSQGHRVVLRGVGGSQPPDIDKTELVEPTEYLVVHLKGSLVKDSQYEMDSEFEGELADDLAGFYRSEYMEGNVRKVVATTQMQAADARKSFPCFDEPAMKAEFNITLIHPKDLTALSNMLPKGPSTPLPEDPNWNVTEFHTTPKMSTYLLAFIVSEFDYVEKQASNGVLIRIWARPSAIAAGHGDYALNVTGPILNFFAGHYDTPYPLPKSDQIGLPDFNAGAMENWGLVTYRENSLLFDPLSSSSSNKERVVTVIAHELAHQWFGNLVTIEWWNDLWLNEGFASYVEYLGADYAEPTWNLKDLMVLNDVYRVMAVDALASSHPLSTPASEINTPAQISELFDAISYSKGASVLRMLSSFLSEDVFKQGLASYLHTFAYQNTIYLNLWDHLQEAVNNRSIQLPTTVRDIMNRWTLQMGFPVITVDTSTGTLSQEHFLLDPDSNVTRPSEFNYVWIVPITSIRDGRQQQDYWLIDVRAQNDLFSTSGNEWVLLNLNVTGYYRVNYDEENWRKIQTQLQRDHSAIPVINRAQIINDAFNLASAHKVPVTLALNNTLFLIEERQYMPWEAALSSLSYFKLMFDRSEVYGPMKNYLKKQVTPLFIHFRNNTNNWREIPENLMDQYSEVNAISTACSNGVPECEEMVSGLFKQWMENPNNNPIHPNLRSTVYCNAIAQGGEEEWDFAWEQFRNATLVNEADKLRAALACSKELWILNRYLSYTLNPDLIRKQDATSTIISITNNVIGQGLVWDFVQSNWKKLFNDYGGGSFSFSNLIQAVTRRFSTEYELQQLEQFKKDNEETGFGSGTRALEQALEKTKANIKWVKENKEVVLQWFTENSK
quantity name: IC50 (µM)
Write it as a number; the unit µM goes unstated.

Use the examples below as a reference point.
>>> df
                                   compound  test_result
0  Cc1ccccc1Cn1cc(CNC(=O)N[C@@H](CC(C)C)C(=O)NO)nn1          6.9
1  COc1ccccc1Cn1cc(CNC(=O)N[C@@H](CC(C)C)C(=O)NO)nn1          6.5
2  CC(C)C[C@H](NC(=O)NCc1cn(Cc2cccc(OCc3ccccc3)c2)nn1)C(=O)NO         0.87
3  CCOc1ccccc1Cn1cc(CNC(=O)N[C@@H](CC(C)C)C(=O)NO)nn1          2.1
4  COc1ccccc1C(C)n1cc(CNC(=O)N[C@@H](CC(C)C)C(=O)NO)nn1 (stereo partly specified)          4.8

Sample CC(C)C[C@H](NC(=O)NCc1cn(Cc2ccccc2OCc2ccccc2)nn1)C(=O)NO ; IC50 observed: 0.74
